Target: cyclooxygenase (Rattus norvegicus)
Construct: host or cells: RBL-1 (rat basophilic leukemia) cells
Sequence (Q63921 27-602): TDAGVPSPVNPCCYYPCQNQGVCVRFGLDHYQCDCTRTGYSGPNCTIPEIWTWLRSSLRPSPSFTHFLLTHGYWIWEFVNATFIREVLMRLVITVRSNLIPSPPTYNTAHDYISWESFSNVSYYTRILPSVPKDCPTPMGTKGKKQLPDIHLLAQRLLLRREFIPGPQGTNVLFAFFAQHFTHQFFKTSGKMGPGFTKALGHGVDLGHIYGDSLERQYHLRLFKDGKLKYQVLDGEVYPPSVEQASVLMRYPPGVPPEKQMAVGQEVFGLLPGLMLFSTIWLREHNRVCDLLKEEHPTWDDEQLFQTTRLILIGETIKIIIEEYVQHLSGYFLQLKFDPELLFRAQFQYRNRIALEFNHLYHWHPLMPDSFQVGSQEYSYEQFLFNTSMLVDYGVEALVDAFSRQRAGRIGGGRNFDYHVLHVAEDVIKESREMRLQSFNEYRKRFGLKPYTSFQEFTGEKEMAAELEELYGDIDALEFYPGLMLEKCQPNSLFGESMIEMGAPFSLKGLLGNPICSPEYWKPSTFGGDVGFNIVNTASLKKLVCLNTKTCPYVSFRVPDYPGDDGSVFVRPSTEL
Test: ARBC whole cell cyclooxygenase assay (RBL-1 cells, PGF2α formation by RIA)
Format: cell-based
Details: RBL-1 whole cells; @ 10 μM; read-out: ARBC % inhibition at the given micromolar concentration (PGF2α formation)
Description: ARBL/ARBC Whole Cell 5-Lipoxygenase and Cyclooxyqenase Assays The rat basophilic leukemia cell line (RBL-1) was obtained from the American Type Culture Collection (Rockville, Md.). […] RBL-1 cells are grown in suspension culture in Eagle's minimum essential medium supplemented with 12% fetal bovine serum at 37° C. in an incubator supplied with air-5% carbon dioxide. […] Aliquots (100 μL) are analyzed for LTB4 and PGF2α using radioimmunoassay kits as provided by the supplier. […]
Recorded Endpoint: inhibition at 10 µM (%)
The figure you give is taken to be in %; do not add the unit.

Study these solved cases before continuing.
>>> print(df.to_string())
                                   compound  measurement_unit  data_value
0  COC(=O)c1ccccc1Nc1c(Cl)ccc(C(C)N(O)C(C)=O)c1Cl (stereo not drawn)                 %          52
1  CC(=O)N(O)C(C)c1cccc(Nc2ccccc2C(=O)O)c1Cl (stereo not drawn)                 %          79
2    CC(=O)N(O)Cc1cccc(Nc2ccccc2C(=O)O)c1Cl                 %          87

[ask] Please look at this compound and report its inhibition at 10 µM: CC(=O)N(O)C(C)c1ccc(Cl)c(Nc2ccccc2C(=O)O)c1Cl (stereo not drawn)
[reply] 53

[ask] Return value of inhibition at 10 µM for input CC(=O)N(O)C(C)c1cccc(Nc2ccccc2C(=O)O)c1C (stereo not drawn) , no commentary.
[reply] 70

[ask] Report measured inhibition at 10 µM; entry is CC(=O)N(O)Cc1ccc(Cl)c(Nc2ccccc2C(=O)O)c1Cl
[reply] 83

====

Biological target: UniProt:P12527
Sequence (P12527 1-673): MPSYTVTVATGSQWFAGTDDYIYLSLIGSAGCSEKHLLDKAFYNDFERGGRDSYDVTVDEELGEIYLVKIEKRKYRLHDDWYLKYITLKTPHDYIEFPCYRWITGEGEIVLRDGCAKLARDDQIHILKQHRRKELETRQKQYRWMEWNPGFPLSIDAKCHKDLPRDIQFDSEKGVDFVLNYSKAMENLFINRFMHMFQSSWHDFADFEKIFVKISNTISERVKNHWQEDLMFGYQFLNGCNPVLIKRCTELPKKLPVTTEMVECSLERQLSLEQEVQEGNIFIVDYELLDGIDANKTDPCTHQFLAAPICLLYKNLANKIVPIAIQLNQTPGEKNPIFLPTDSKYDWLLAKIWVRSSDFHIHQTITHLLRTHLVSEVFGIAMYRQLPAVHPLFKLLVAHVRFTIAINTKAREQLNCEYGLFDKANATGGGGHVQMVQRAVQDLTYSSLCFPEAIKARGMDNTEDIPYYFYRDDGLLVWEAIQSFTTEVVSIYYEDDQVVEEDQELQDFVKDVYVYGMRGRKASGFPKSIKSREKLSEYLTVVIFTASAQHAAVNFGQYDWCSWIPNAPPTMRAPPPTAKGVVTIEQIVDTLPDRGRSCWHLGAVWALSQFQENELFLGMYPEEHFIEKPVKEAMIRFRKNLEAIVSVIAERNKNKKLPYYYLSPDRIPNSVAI
Assay: ARBL whole cell 5-lipoxygenase assay (RBL-1 cells, LTB4 formation by RIA)
Details: RBL-1 whole cells, A23187 5 μM; read-out: ARBL IC50 (50% inhibition of LTB4 formation)
Recorded Endpoint: IC50 (nM)
Field: numeric (nM). Do not append units.

Here is how some molecules turned out for IC50.
In [3]: df
Out[3]:
                                   molecule  recorded_endpoint  measurement_unit  data_value
0  CCOC(=O)N(O)Cc1ccc(Cl)c(Nc2ccccc2C(=O)OC)c1Cl [Example 42]               IC50                nM         330
1  COC(=O)c1ccccc1Nc1c(Cl)ccc(CN(O)C(C)=O)c1Cl [Example 38]               IC50                nM         360
2  CCOC(=O)N(O)Cc1cccc(Nc2ccccc2C(=O)OC)c1C [Example 41]               IC50                nM         390
3  CNC(=O)N(O)Cc1cccc(Nc2ccccc2C(=O)OC)c1Cl [Example 46]               IC50                nM         360
4  COC(=O)c1ccccc1Nc1cccc(CN(O)C(C)=O)c1Cl [Example 37]               IC50                nM         580

Now take the following molecule into account.
[ask] Supply reported IC50 belonging to this molecule: CCOC(=O)N(O)Cc1cccc(Nc2ccccc2C(=O)OC)c1Cl [Example 40]
[reply] 210
